Assay remarks: Solubility in 70% ethanol at 10°C
Observation type: Solubility (w/w %)
Numbers only, in w/w %.

CCCCCCCCCCCCCCC(=O)N[C@H](C(=O)O)C(C)C; 2.5
CCCCCCCCCCCCCCC(=O)N[C@H](C(=O)O)[C@@H](C)CC; 4.0

Now look at this one.
In: Using the record for CCCCCCCCCCCCCCC(=O)N[C@@H](Cc1ccccc1)C(=O)O , report its Solubility (w/w %).
Out: 3.7
